protocol_summary: NCI Yeast Anticancer Drug Screen. Data for the rad18 strain (AID 177)
measurement_setup: S. cerevisiae rad18 mutant growth inhibition; at 33.0 µM; active compounds read high
About 79,000 compounds went through this panel and 15% of them were active in at least one assay; those are over-represented in the sample as a whole.

compound | growth inhibition, %
C[C@]12CCc3nonc3C1CC[C@@H]1C2CC[C@]2(C)C(=O)CCC12 (stereo partly specified) | 28
OC1CCCC2CCC[N-]C12.OC1CCCC2CCC[N-]C12.[O]=[V][OH] (stereo unspecified) | 96
Oc1cccc2nc3ccccc3nc12 | 27
CCOC(=O)C1C2c3ccccc3C(c3ccccc32)C1C(=O)OCC (stereo unspecified) | 11
CC1CN1C1=C(Cl)C(=O)C(N2CC2C)=C(Cl)C1=O (stereo unspecified) | 97
CNC(=O)ON(C(C)=O)C(=O)NC | 0

###

protocol_summary: NCI Yeast Anticancer Drug Screen. Data for the CLN2oe strain (AID 163);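 further: 0% = growth of vehicle-only control cultures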
measurement_setup: S. cerevisiae CLN2oe strain, at 1.2 µM, active compounds read high
This is part of a sample that, as a whole, favours compounds with a hit. Of some 79,000 tested, about 15% had one in any assay.
property_label: growth inhibition (%)

molecule | result_value
c1ccc2cc3n[se]nc3cc2c1 | -5
CO[C@H](/C(C)=C/C=C/C(C)=C/c1coc(C)n1)[C@H](C)[C@H]1C[C@@H](O)[C@@]2(C)O[C@H]2/C=C/[C@@H](C)[C@@H]2C[C@@H](CC(=O)O2)C[C@H]2O[C@@H]2C(=O)O1 | -24
CCN(CCCl)c1cc(CN(C)C)cc(NC(=O)c2ccc(C(=O)Nc3cc(CN(C)C)cc(N(CC)CCCl)c3)cc2)c1 | 15
CC(Cc1ccccc1)N(C)Cc1nc(C2CCC([N+](=O)[O-])O2)no1 (stereo not given) | -1
Nc1ccccc1C(=O)OCCc1ccccc1 | 19

###

protocol_summary: NCI Yeast Anticancer Drug Screen. Data for the rad50 strain (AID 155);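 further: 0% = growth of vehicle-only cultures of the same strain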
measurement_setup: S. cerevisiae rad50 strain growth inhibition; at 1.2 µM; active compounds read high
This is part of a sample that, as a whole, favours compounds with a hit. Of some 79,000 tested, about 15% had one in any assay.

molecule | growth inhibition / %
N#CC(C#N)=Cc1ccc(C#N)cc1 | 1
CC[C@]1(O)CC(OC2CC(N(C)C)C(O)C(C)O2)c2c(cc3c(c2O)C(=O)c2c(O)cccc2C3=O)[C@@H]1C(=O)OC (stereo partly drawn) | 33
CC(C)(C)c1cc([N+](=O)[O-])cc([N+](=O)[O-])c1O | -24
CO[C@H](/C(C)=C/C=C/C(C)=C/c1coc(C)n1)[C@H](C)[C@H]1C[C@@H](O)[C@@]2(C)O[C@H]2/C=C/[C@@H](C)[C@@H]2C[C@@H](CC(=O)O2)C[C@H]2O[C@@H]2C(=O)O1 | -6
CN(C)CCSC1=Nc2ccc(Cl)cc2C(c2ccccc2Cl)=NC1 | -1
c1ccc2cc3n[se]nc3cc2c1 | 3
OC1(c2ccccc2)CC2CCC(C1)N2CCCC(O)(c1ccccc1)c1ccccc1 (stereo not drawn) | -6
O=C(Nc1cc(Cl)ccc1Cl)C(Cl)(Cl)Cl | 2
CCNC(=O)OCC1C2=C(C(=O)C(C)=C(N)C2=O)N2CC3C(N3C)C12OC (stereo not drawn) | 14
Nc1ccc(Cl)cc1C(=O)c1ccccc1 | -17
Cc1cccc(NC(=O)CBr)c1 | 6
CCCCCCCCCCCCCCCCP(=O)(O)OCC(N)C(=O)O (stereo not drawn) | -14
CCC1(O)C(=O)OCc2c1cc1n(c2=O)Cc2cc3ccccc3nc2-1 (stereo not drawn) | 74
COC(=O)C(F)C(Br)C(=O)OC (stereo not drawn) | -5
Cn1cc(NC(=O)c2cc(NC(=O)CN=C(N)N)cn2C)cc1C(=O)NCCC(=N)N | 0
Cn1cnc(N)c1C(=N)[Se] | 27
CC[PH+](CC)CC.CC[PH+](CC)CC.[Au] | 24
Cc1ccc2c(c1)C1(C)c3cc(C)ccc3SP1S2 (stereo not drawn) | 17
Nc1nc(N)c(-c2ccc(Cl)c(Cl)c2)c(CP(Cl)(Cl)(Cl)Br)n1 | 9
CSc1ccccc1[As](C)C | 7
BrCC[N+]12CC[N+](CCBr)(CC1)C2 | 14
CCCCN(CCCC)CC(C(C)=O)C(c1ccccc1)c1c(O)c2ccccc2oc1=O (stereo not drawn) | 2
COc1cc([C@@H]2c3cc4c(cc3C[C@@H]3COC(=O)C32)OCO4)cc(OC)c1O (stereo partly drawn) | 53
[N-]=[N+]=C1C(Cl)=C(Cl)C(Cl)=C1Cl | 6
Oc1c(Br)cc(Br)cc1Br | 10
CCC1(O)C(=O)OCc2c1cc1n(c2=O)Cc2c-1nc1ccccc1c2OC (stereo not drawn) | 85
Cc1c2ccccc2cc2ccccc12 | 4
CCCCCNC(=O)c1c(O)[nH]c(=S)[nH]c1=O | 5
O=C(O)CCCOc1cc(Cl)c(Cl)cc1Cl | -10
CC1CCCN(CCc2ccccc2)CC1 (stereo not drawn) | 1
Nc1nc(-c2ccccc2)c(-c2ccccc2)[se]1 | 7
CCCN(CCC)c1c([N+](=O)[O-])cc(S(N)(=O)=O)cc1[N+](=O)[O-] | 14
Nc1nnc(N)n1-n1c(N)nnc1N | -3
